test: chemical genetic growth profiling, strain panel (AID 1159580);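 also: tested at 20 µM; growth read once vehicle control cultures reached saturation at 30 °C; 1 = growth at the plate median or of vehicle wells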; conditions: S. cerevisiae deletion strains, growth OD, locus YPR119W, strain clb2
About 2,000 (36%) of roughly 5,500 compounds were called active. Roughly 18% stayed inconclusive and do not appear here. Rule as the data show it: active = normalized growth mostly below about 0.91 (no sharp cut-off); inconclusive = no clear call, values can overlap the other calls; inactive = mostly above about 0.92. Some of the results follow.
Respond only with the outcome that fits, drawn from active, inactive

molecule="CC(C)=CCCC1(C)C=Cc2c(O)c3c(c(CC=C(C)C)c2O1)OC12C(CC4CC1C(C)(C)OC2(C/C=C(/C)C(=O)O)C4O)C3=O (stereo unspecified)" group_label=inactive

// query Look up the recorded call for CCCCCCCCCCCC[C@H](C(=O)O)[C@@H](C)C(=O)O in this test.
// result inactive

// query Same question for COc1ccc2[nH]cc(CCN)c2c1 please.
// result inactive

// query Same question for CC(C)=CCCC1(C)C=Cc2c(O)c3c(c(CC=C(C)C)c2O1)OC12C(=CC4CC1C(C)(C)OC2(C/C=C(/C)C(=O)O)C4O)C3=O (stereo unspecified) please.
// result inactive

// query Same question for COC(=O)Nc1nc2ccc(Sc3ccccc3)cc2[nH]1 please.
// result inactive

// query Same question for CC(C)(C#N)O[C@@H]1O[C@H](CO)[C@@H](O)[C@H](O)[C@H]1O please.
// result inactive

// query Same question for Nc1ccc(S(=O)(=O)Nc2ccnn2-c2ccccc2)cc1 please.
// result inactive

// query Same question for Cc1cc(O)cc(O)c1C(=O)O please.
// result inactive

// query Same question for Nc1c2ccccc2nc2ccccc12 please.
// result active

// query Same question for NC12CC3CC(CC(C3)C1)C2 please.
// result inactive

// query Same question for Cc1cc(O)ccc1Cl please.
// result inactive

====

experiment: chemical genetic growth profiling, strain panel (AID 1159580); details: S. cerevisiae deletion strains, growth OD, locus YMR058W, strain fet3, stronger effect = lower value
Hit rate of the full screen: of about 5,500 compounds, about 2,000 (36%) were called active. Inconclusive results (about 18%) are left out. Some of the results follow.
Quick rule for you: normalized growth under 1 gets yes, anything else gets no.

compound="CO[C@@]12[C@@H]3NC3CN1C1=C(C(=O)C(N)=C(C)C1=O)[C@@H]2COC(N)=O (stereo partly specified)" group_label=yes
compound=Cc1ccc(-c2cc(C(F)(F)F)nn2-c2ccc(S(N)(=O)=O)cc2)cc1 group_label=no
compound="CCCCCCCCCCCCCCC(C(=O)O)C(O)(CC(=O)OC)C(=O)O (stereo unspecified)" group_label=yes
compound=Cc1cc(O)cc(C)c1Cl group_label=yes
compound="COc1c(-c2coc3cc4c(cc3c2=O)CC(OC(C)=O)C(C)(C)O4)ccc2c1C=CC(C)(C)O2 (stereo unspecified)" group_label=no

Now consider a different compound.
// query Could you please tell me whether normalized growth recorded for COC(=O)C[C@H]1C(C)(C)C(=O)[C@@H]2CC3C4=CC(=O)O[C@@H](c5ccoc5)[C@]4(C)CCC3[C@@]1(C)C2=O (stereo partly specified) is less than 1?
// result yes

====

experiment: chemical genetic growth profiling, strain panel (AID 1159580); conditions: S. cerevisiae deletion strains, growth OD, locus YNL071W, strain lat1, stronger effect = lower value
About 2,000 (36%) of roughly 5,500 compounds were called active. About 18% were inconclusive and are not listed. Some of the results follow.
Measured quantity: normalized growth
// response body must contain only the number

Sample records with normalized growth:
compound=CCOc1ccc2nc3cc(N)ccc3c(N)c2c1 test_value=0.909
compound="CC(=O)/C=C\\[C@@H]1[C@@]2(C)CCCC(C)(C)C2CC[C@@]1(C)O (some centres not stated)" test_value=0.961
compound=Cc1cc(O)cc(=O)o1 test_value=1
compound="C[C@H]1[C@H](C)CC[C@]2(CO)CC[C@]3(C)C(=CCC4[C@@]5(C)CC[C@H](O)C(C)(C)C5CC[C@]43C)[C@H]12 (some centres not stated)" test_value=0.995
compound=COc1cccc2c1C(=O)c1c(O)c3c(c(O)c1C2=O)C[C@@](O)(C(=O)CO)C[C@@H]3O[C@H]1C[C@H](N)[C@@H](O)[C@H](C)O1 test_value=0.689

// query Entry under review: C#C[C@]1(OC(C)=O)CCC2C3CCC4=CC(=O)CC[C@@H]4C3CC[C@@]21C (some centres not stated) . Reported normalized growth?
// result 0.986

// query Same question for C/C=C(/C)C(=O)O[C@@H]1[C@H](OC(C)=O)[C@@]2(CO)C(CC1(C)C)C1=CCC3[C@@]4(C)CC[C@H](O[C@@H]5O[C@H](C(=O)O)[C@@H](O[C@@H]6O[C@H](CO)[C@@H](O)[C@H](O)[C@H]6O)[C@H](O)[C@H]5O[C@@H]5O[C@H](CO)[C@@H](O)[C@H](O)[C@H]5O)[C@](C)(CO)C4CC[C@@]3(C)[C@]1(C)C[C@H]2O (some centres not stated) please.
// result 1

// query Same question for Nc1c2c(nc3ccccc13)CCCC2O (configuration not stated) please.
// result 1.01

// query Same question for C[C@@H]1CC[C@]2(C(=O)O)CC[C@]3(C)C(=CCC4[C@@]5(C)CC[C@H](O)C(C)(C)C5CC[C@]43C)C2[C@H]1C (some centres not stated) please.
// result 1.01

====

assay: chemical genetic growth profiling, strain panel (AID 1159580);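 also: tested at 20 µM; growth read once vehicle control cultures reached saturation at 30 °C; 1 = growth at the plate median or of vehicle wells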; details: S. cerevisiae deletion strains, growth OD, locus YGR040W, strain KSS1
Out of some 5,500 compounds screened, about 2,000 (36%) were called active. Another 18% or so got no clear call; they are omitted. No stated cut-off is given here; in the data, active means normalized growth mostly below about 0.91 (no sharp cut-off); inconclusive means no clear call, values can overlap the other calls; inactive means mostly above about 0.92. This is one part of the list.
Respond only with the outcome that fits, drawn from active, inactive

Check out these entries, answers already filled in.
molecule=Cc1csc(NC(=O)Nc2ccc(C(F)(F)F)cc2)c1 group_label=inactive
molecule="O=C(NCC1COc2ccccc2O1)c1ccc(Cl)cc1 (configuration not stated)" group_label=inactive
molecule=O=C(NCCNc1ncc(C(F)(F)F)cc1Cl)C(F)(F)Sc1ccccc1 group_label=inactive
molecule="CC(C)Cc1ccc(C(C)C(=O)Nc2nn(C)c3ccccc23)cc1 (configuration not stated)" group_label=inactive
molecule=Brc1ccc2[nH]c3c(c2c1)CCC3 group_label=inactive

// query Look up the recorded call for O=[N+]([O-])c1ccc(S(=O)(=O)c2ccccc2)nc1S(=O)(=O)c1ccccc1 in this test.
// result active

// query Same question for Fc1ccc(NC(=S)N2CCCN(Cc3ccc(Cl)cc3Cl)CC2)cc1 please.
// result inactive

// query Same question for CC(C)(C)C(=O)N(Cc1cccnc1)Cc1ccc(Cl)cc1Cl please.
// result inactive

// query Same question for N#Cc1c2ccccc2nc2ccccc12 please.
// result inactive

// query Same question for O=C(c1ccc(Cl)cc1)N(Cc1ccccc1)Cc1cccnc1 please.
// result inactive

// query Same question for Cc1nc(-c2ccccn2)nc(N(C)Cc2ccccc2)c1Cl please.
// result inactive

// query Same question for Fc1cccc(Cl)c1CSc1n[nH]c(-c2cc(C(F)(F)F)cc(C(F)(F)F)c2)n1 please.
// result inactive

====

test: chemical genetic growth profiling, strain panel (AID 1159580);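 also: tested at 20 µM; growth read once vehicle control cultures reached saturation at 30 °C; 1 = growth at the plate median or of vehicle wells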; settings: S. cerevisiae deletion strains, growth OD, locus YDR150W, strain NUM1, stronger effect = lower value
Among all 5,500 compounds or so, about 2,000 (36%) were called active. About 18% were inconclusive and are not listed. The list shows a part of the results.
# normalized growth listing for each entry below
// response body must contain only the number

// query Entry under review: C/C=C1\[C@H]2C=C(C)C[C@]1(N)c1ccc(=O)[nH]c1C2 . Reported normalized growth?
// result 1.02

// query Same question for O=C1CC(CSc2ccc(Cl)cc2)=NN1 please.
// result 0.968

// query Same question for CC(=O)NCc1c(I)c(NC(C)=O)c(I)c(C(=O)O)c1I please.
// result 0.995

// query Same question for CC(=O)Nc1c(C)c(C)c(C)c(C)c1NC(C)=O please.
// result 0.989

// query Same question for CC(C)(C#N)O[C@@H]1O[C@H](CO)[C@@H](O)[C@H](O)[C@H]1O please.
// result 1.02

// query Same question for CCCCCc1ccc(C(=O)O/N=C\c2c(Cl)cccc2Cl)cc1 please.
// result 1.01

====

# normalized growth listing for each entry below
test: chemical genetic growth profiling, strain panel (AID 1159580);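 also: tested at 20 µM; growth read once vehicle control cultures reached saturation at 30 °C; 1 = growth at the plate median or of vehicle wells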; conditions: S. cerevisiae deletion strains, growth OD, locus YEL061C, strain CIN8, stronger effect = lower value
The campaign covered roughly 5,500 compounds. About 2,000 (36%) were called active. Not shown: some 18% with an inconclusive outcome. Some of the results follow.
// response body must contain only the number

Sample records with normalized growth:
compound="Nc1c2ccccc2nc2ccccc12 (tested in a mixture with another compound)" test_value=0.838
compound="CC(C)=CCCC1(C)C=Cc2c(O)c3c(c(CC=C(C)C)c2O1)OC12C(=CCCC1C(C)(C)O[C@@]2(C/C=C(\\C)C(=O)O)C(=O)O)C3=O (some centres undefined)" test_value=0.89
compound=Cc1cc(C)cc(NC(=S)N2CCN(c3ncc(C(F)(F)F)cc3Cl)CC2)c1 test_value=1.01

// query Entry under review: CC(C)c1ccccc1NC(=S)N1CCN(c2ncc(C(F)(F)F)cc2Cl)CC1 . Reported normalized growth?
// result 1.01
